Biological target: Recombinant human renin (Homo sapiens)
Sequence (P00797 67-406): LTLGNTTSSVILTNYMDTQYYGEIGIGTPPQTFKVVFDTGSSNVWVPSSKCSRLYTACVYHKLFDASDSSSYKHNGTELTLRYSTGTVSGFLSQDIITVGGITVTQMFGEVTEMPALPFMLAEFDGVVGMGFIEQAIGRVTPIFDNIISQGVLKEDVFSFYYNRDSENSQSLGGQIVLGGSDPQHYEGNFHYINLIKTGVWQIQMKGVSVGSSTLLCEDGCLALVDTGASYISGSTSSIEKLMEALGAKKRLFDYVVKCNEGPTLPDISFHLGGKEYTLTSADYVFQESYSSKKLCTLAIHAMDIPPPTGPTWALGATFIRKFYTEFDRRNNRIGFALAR
Assay: In vitro renin inhibitory activity assay
Details: recombinant human renin 4.2 ng/mL, substrate 4 μM, 37° C., one hour, pH 7.4
Method: Experiment 1: In Vitro Renin Inhibitory Activity Assay Recombinant human renin (4.2 ng/mL) was reacted in 0.1M HEPES buffer (pH 7.4) containing 0.1M NaCl, 1 mM EDTA and 0.1 mg/mL BSA together with a substrate and a test compound at 37° C. for one hour. […] The elevated fluorescence intensity at the exciting wavelength 340 nm and the fluorescence wavelength 500 nm was measured by a fluorescence plate reader. […]
pIC50: −log10 of the molar value.
Attribute measured: pIC50

Known value: Recombinant human renin (Homo sapiens) pIC50 of the compound `Cc1cc2c(cc1C(=O)N(C(C)C)[C@@H]1CCCN(C(=O)OCc3oc(=O)oc3C)C1)N(CCNC(=O)C(F)F)C(=O)C1(CCC1)O2` equals 8.72

(P) CCC(=O)NCCN1C(=O)C(C)(C)Oc2cc(C(F)(F)F)c(C(=O)N(C(C)C)C3CCCN(C(=O)OC(C)OC(=O)C(C)C)C3)cc21 (stereo not drawn)
(Q) CCC(=O)NCCN1C(=O)C2(CCC2)Oc2cc(C)c(C(=O)N(C(C)C)C3CCCN(C(=O)OC(C)OC(=O)C(C)C)C3)cc21 (stereo not drawn)
Could you tell me which of P and Q has the lower pIC50 reading? Your answer should be the label attached to the chosen record.
Q
(Q: 7.12, P: 7.68)

The values you see were collected from patent US8658639B2.
